The following compounds are listed with their measured pIC50 values.
testedOn: recombinant IRAK-4 kinase (Homo sapiens, UniProt Q9NWZ3)
protocolDescription: IRAK-4 Biochemical Assay (TR-FRET)
testConditions: 30 min pre-incubation, 100 nM Biotin Histone H3, 20 μM ATP, read-out: IC50 values for IRAK4 activity
pIC50: −log10 of the molar value.

Query (compound): Cc1cc(-c2nc(C(=O)Nc3cc4cn(C)nc4cc3N3CCC(CO)CC3)co2)ccn1 [Example 80] ; field requested: pIC50
> 7.30

Param item: C[C@@H](O)Cn1cc(-c2cccc(C(=O)Nc3cc4cn(C)nc4cc3N3CCCCC3)n2)cn1 [Example 43]
> 7.30

And the next one, Cc1cc(-c2nc(C(=O)Nc3cc4cnn(C)c4cc3N3CCC(F)CC3)co2)ccn1 [Example 78] ?
> 7.30

Can you check Cc1cc(-c2nc(C(=O)Nc3cc4cnn(C)c4cc3N3CCCCCC3)co2)ccn1 [Example 72] next?
> 7.30

---

Measured IC50 of individual entries
testedOn: recombinant IRAK-4 kinase (Homo sapiens)
protocolDescription: IRAK-4 Biochemical Assay (TR-FRET)
testConditions: 30 min pre-incubation, 100 nM Biotin Histone H3, 20 μM ATP, read-out: IC50 values for IRAK4 activity
Where a name gives a salt, the structure may show the parent alone.

Recorded IC50, per entry:
Cn1cc2cc(NC(=O)c3cccc(Br)n3)c(N3CCCCC3)cc2n1 [Example 23] | < 50 nM
COCCn1ncc2cc(NC(=O)c3coc(-c4ccnc(C)c4)n3)c(N3CCC(CO)CC3)cc21 [Example 94] | < 50 nM
Cn1cc2cc(NC(=O)c3cccc(N4CC[C@@H](O)C4)n3)c(N3CCCCC3)cc2n1 [Example 38] | < 50 nM
Cc1cc(-c2nc(C(=O)Nc3cc4cnn(C5CC5)c4cc3N3CCCCC3)co2)ccn1 [Example 31, hydrochloride] | < 50 nM
Cc1cc(-c2nc(C(=O)Nc3cc4cnn(C5CC5)c4cc3C3CC3)co2)ccn1 [Example 36, hydrochloride] | 50 to 100 nM
Cn1cc2cc(NC(=O)c3coc(N4CC[C@H](O)C4)n3)c(N3CCCCC3)cc2n1 [Example 52] | < 50 nM
Cc1cc(-c2nc(C(=O)Nc3cc4cn(C)nc4cc3N3CCCCCC3)co2)ccn1 [Example 71] | < 50 nM

Now look at this entry.
Consider the compound shown here: Cc1cc(-c2nc(C(=O)Nc3cc4cn(C)nc4cc3N3CCCCC3)co2)cc(C)n1 [Example 119, hydrochloride] What is its recorded IC50?
< 50 nM

---

testedOn: recombinant IRAK-4 kinase (Homo sapiens, UniProt Q9NWZ3)
Sequence (Q9NWZ3 1-460): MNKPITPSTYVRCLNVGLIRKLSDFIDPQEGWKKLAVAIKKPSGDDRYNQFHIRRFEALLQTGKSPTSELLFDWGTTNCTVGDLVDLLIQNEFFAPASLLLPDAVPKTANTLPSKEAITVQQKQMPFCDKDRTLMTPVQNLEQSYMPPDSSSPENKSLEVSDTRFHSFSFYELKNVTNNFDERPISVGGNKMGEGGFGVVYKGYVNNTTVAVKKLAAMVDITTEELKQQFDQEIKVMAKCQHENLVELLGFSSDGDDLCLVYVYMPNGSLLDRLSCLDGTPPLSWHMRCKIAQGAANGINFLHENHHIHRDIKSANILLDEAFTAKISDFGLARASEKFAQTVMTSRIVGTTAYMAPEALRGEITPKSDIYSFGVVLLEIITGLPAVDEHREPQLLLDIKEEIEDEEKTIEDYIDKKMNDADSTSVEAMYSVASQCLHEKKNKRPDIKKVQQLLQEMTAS
protocolDescription: IRAK-4 Biochemical Assay (TR-FRET)
testConditions: 30 min pre-incubation, 100 nM Biotin Histone H3, 20 μM ATP, read-out: IC50 values for IRAK4 activity
pIC50: −log10 of the molar value. Structures can show the parent of a compound that is named as a salt.
measurementKind: pIC50

Some solved entries appear below for comparison.
Cn1cc(-c2cccc(C(=O)Nc3cc4cn(C)nc4cc3N3CCCCC3)n2)cn1 | > 7.30
Cn1cc2cc(NC(=O)c3coc(-c4ccnc(N)c4)n3)c(N3CC[C@@H](O)C3)cc2n1 [Example 105, hydrochloride] | > 7.30
Cn1cc(-c2cccc(C(=O)Nc3cc4cn(C5CCCC5)nc4cc3C3CC3)n2)cn1 | > 7.30
COc1cc(-c2nc(C(=O)Nc3cc4cnn(C)c4cc3N3CCC(O)CC3)co2)ccn1 | > 7.30

Report pIC50 for Cn1cc2cc(NC(=O)c3cccc(N4CC[C@H](O)C4)n3)c(C3CC3)cc2n1 please.
> 7.30

Again, but for Cc1cc(-c2ccc(C(=O)Nc3cc4cn(C)nc4cc3N3CCCCC3)o2)ccn1
> 7.30

And then Cc1cc(-c2nc(C(=O)Nc3cc4cn(C)nc4cc3N[C@H]3CC[C@H](O)CC3)co2)ccn1 , what is it?
> 7.30

Consider next the compound O=C(Nc1cc2cn(C3CCCC3)nc2cc1C1CC1)c1cccc(-c2cn[nH]c2)n1 in the same way.
> 7.30

---

testedOn: recombinant IRAK-4 kinase (Homo sapiens, UniProt Q9NWZ3)
protocolDescription: IRAK-4 Biochemical Assay (TR-FRET)
testConditions: 30 min pre-incubation, 100 nM Biotin Histone H3, 20 μM ATP, read-out: IC50 values for IRAK4 activity
pIC50: −log10 of the molar value. Where a name gives a salt, the structure may show the parent alone.
measurementKind: pIC50

State the recorded pIC50 for this entry: Cn1cc(-c2cccc(C(=O)Nc3cc4cnn(C5CCCC5)c4cc3C3CC3)n2)cn1
< 7.00

Item: C[C@H](O)Cn1cc(-c2nc(C(=O)Nc3cc4cnn(C)c4cc3C3CC3)co2)cn1
< 7.00

Could you do the same for CCOP(=O)(OCC)OCC1CCN(c2cc3nn(C)cc3cc2NC(=O)c2coc(-c3ccnc(C)c3)n2)CC1 , please?
> 7.30

Entry to check: Cc1cc(-c2nc(C(=O)Nc3cc4cn(C)nc4cc3N3CCC3)co2)ccn1
> 7.30

And for CC(=O)Nc1cc(-c2nc(C(=O)Nc3cc4cn(C)nc4cc3N3CCCC(F)C3)co2)ccn1 (stereo not shown) ?
> 7.30

Next up: Cc1ccc(-c2nc(C(=O)Nc3cc4cn(C5CCCC5)nc4cc3C3CC3)co2)cn1
> 7.30

Thanks! And Cc1cc(-c2ccc(C(=O)Nc3cc4cn(C)nc4cc3N3CCC[C@@H](O)C3)o2)ccn1 ?
> 7.30

Request: Cc1cc(-c2nc(C(=O)Nc3cc4c(C)nn(C)c4cc3N3CCC(F)CC3)co2)ccn1
> 7.30

Cool, now Cn1cc2cc(NC(=O)c3coc(-c4ccnc(NS(C)(=O)=O)c4)n3)c(N3CCC(O)CC3)cc2n1
> 7.30

Similarly, Cc1cc(-c2nc(C(=O)Nc3cc4cnn(C)c4cc3N3CCC(O)CC3)co2)ccn1 ?
> 7.30

Now consider Cn1cc2cc(NC(=O)c3coc(-c4ccnc(N)c4)n3)c(N3CCC(CO)CC3)cc2n1 [Example 100, hydrochloride] and answer again.
> 7.30

Moving on to the next molecule: COc1cc(-c2nc(C(=O)Nc3cc4cn(C)nc4cc3N3CCC(CO)CC3)co2)ccn1
> 7.30

Here is the next molecule: Cc1cc(-c2nc(C(=O)Nc3cc4c(C)n(C)nc4cc3N3CCCCC3)co2)ccn1
> 7.30

One more molecule: COc1cc(-c2nc(C(=O)Nc3cc4cn(C)nc4cc3N3CCCCC3)co2)ccn1
> 7.30

Note, next up: Cn1cc2cc(NC(=O)c3coc(N4CC[C@H](O)C4)n3)c(C3CC3)cc2n1
7.00 to 7.30

Another molecule to check: Cn1cc2cc(NC(=O)c3coc(-c4ccnc(N)c4)n3)c(N3CCC(F)CC3)cc2n1 [Example 90, hydrochloride]
> 7.30

Same question for Cn1cc2cc(NC(=O)c3coc(-c4cccnc4O)n3)c(N3CCCCC3)cc2n1 please.
> 7.30

# repeat for Cn1cc2cc(NC(=O)c3cccc(N4CCC(O)C4)n3)c(N3CCCCC3)cc2n1 (stereo not shown)
> 7.30

Repeat for the following molecule: Cc1cc(-c2nc(C(=O)Nc3cc4cn(C)nc4cc3C3CC3)co2)ccn1 [Example 16, hydrochloride]
> 7.30

Continue with Cc1cc(-c2nc(C(=O)Nc3cc4cn(C)nc4cc3N3CC(O)C3)co2)ccn1
> 7.30

---

testedOn: recombinant IRAK-4 kinase (Homo sapiens, UniProt Q9NWZ3)
Sequence (Q9NWZ3 1-460): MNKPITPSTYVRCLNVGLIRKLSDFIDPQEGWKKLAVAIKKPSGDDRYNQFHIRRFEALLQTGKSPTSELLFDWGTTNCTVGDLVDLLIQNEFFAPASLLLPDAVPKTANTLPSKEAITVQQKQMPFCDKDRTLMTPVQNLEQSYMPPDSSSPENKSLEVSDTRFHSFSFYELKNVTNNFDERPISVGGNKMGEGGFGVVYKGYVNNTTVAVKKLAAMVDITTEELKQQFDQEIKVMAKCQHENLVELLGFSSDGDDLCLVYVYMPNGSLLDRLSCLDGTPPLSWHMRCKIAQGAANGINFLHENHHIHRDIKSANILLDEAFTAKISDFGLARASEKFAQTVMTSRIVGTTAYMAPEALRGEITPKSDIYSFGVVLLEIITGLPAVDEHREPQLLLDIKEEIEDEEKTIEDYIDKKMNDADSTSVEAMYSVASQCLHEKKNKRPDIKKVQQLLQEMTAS
protocolDescription: IRAK-4 Biochemical Assay (TR-FRET)
testConditions: 30 min pre-incubation, 100 nM Biotin Histone H3, 20 μM ATP, read-out: IC50 values for IRAK4 activity
pIC50: −log10 of the molar value.
Catalogue of pIC50 readings, one per entry.

CC(=O)Nc1cc(-c2nc(C(=O)Nc3cc4cn(C)nc4cc3N3CCCCC3)co2)ccn1 [Example 84] | > 7.30
COCCn1nc(C)c2cc(NC(=O)c3coc(-c4ccnc(C)c4)n3)c(N3CCC(CO)CC3)cc21 [Example 110] | > 7.30

Query (compound): C[C@H](O)Cn1cc(-c2cccc(C(=O)Nc3cc4cn(C)nc4cc3N3CCCCC3)n2)cn1 [Example 34] ; field requested: pIC50
> 7.30

Do the same for Cn1cc2cc(NC(=O)c3cccc(N4CC[C@H](O)C4)n3)c(N3CCCCC3)cc2n1 [Example 39] please
> 7.30
